Taken from PubChem BioAssay (NCI).

Recorded log10 of TGI, one value per entry.
System: SF-539 CNS
experiment: NCI tumour cell line growth inhibition, 48 h
Please interpret these as log10 of TGI where TGI is in µM.

>  <molecule>
O=[N+]([O-])/C(C(Cl)=C(Cl)Cl)=C1/OCCS1

>  <log10 of TGI>
1.63

$$$$
>  <molecule>
O=C(Nc1ccc([N+](=O)[O-])cc1)C(=O)C(C(=O)c1ccccc1F)C1OC(=O)c2ccccc21 (stereo unspecified)

>  <log10 of TGI>
1.75

$$$$
>  <molecule>
CC(C)=CCC/C(C)=C/Cc1c(O)ccc2c1[nH]c1cc(O)c(C)cc12

>  <log10 of TGI>
1.38

$$$$

Query COc1ccc2c(c1)C(=O)c1c-2n(CCCN2CCOCC2)c(=O)c2ccccc12 yields log10 of TGI of 0.73

Query CCCCCCCC(=O)N/N=C/c1ccc(Sc2nccn2C)c([N+](=O)[O-])c1 yields log10 of TGI of 1.53

Query COC(=O)[C@@]12OC[C@]34C([C@@H](O)C1O)[C@@]1(C)CC(=O)C(O)=C(C)C1C[C@H]3OC(=O)[C@H](OC(=O)CC(C)C(F)(F)F)[C@H]42 (stereo partly specified) yields log10 of TGI of -1.17

Query CCCCCCCCCCCCC(=O)[O-].CCCCCCCCCCCCC(=O)[O-].CCCCCCCCCCCCC(=O)[O-].CCCCCCCCCCCCC(=O)[O-].[Mo+2].[Mo+2] yields log10 of TGI of 1.46

Query CCOC(CCCN1CCC2(CC1)C(=O)N(C)CN2c1ccccc1)(OCC)c1ccc(F)cc1 yields log10 of TGI of 1.14

Query CC(=O)Oc1ccccc1C(=O)C1c2cccc(O)c2C(=O)c2c(O)cccc21 yields log10 of TGI of 0.29

###

Recorded log10 of TGI, one value per entry.
Test system: MDA-MB-435
experiment: NCI tumour cell line growth inhibition, 48 h
Please interpret these as log10 of TGI where TGI is in µM.

Some molecules with recorded log10 of TGI:
>  <molecule>
CCc1c2c(nc3cccc(N)c13)-c1cc3c(c(=O)n1C2)COC(=O)[C@]3(O)CC

>  <log10 of TGI>
0.19

$$$$
>  <molecule>
COc1ccc(/C=C(\NC(=O)c2ccccc2)C(=O)NN(C)c2ccnc3cc(Cl)ccc23)cc1OC

>  <log10 of TGI>
1.70

$$$$
>  <molecule>
NCCCc1ccc2oc3ccccc3c2c1

>  <log10 of TGI>
1.46

$$$$
>  <molecule>
C=C(C)CCC(C)N1CCC(N2CCC(C(=O)NCCc3ccccc3)CC2)CC1 (stereo not drawn)

>  <log10 of TGI>
1.45

$$$$

Please look at the following molecule next.
Query Cn1cc(-c2ccc(CNc3cc(-c4cnc5cc(OCCCN6CCCC6)ccn45)ncn3)cc2)cn1 yields log10 of TGI of 0.50

###

Tested on: MDA-MB-231 breast
experiment: NCI tumour cell line growth inhibition, 48 h; in the data active = GI50 below about 0.43 µM; inactive = the rest
Hi there, use one of these labels in your reply, thanks! 1 (yes) for active, 0 (no) for inactive

>  <compound>
CCCCC[C@H]1C/C=C2/C(=O)C(Cl)=C[C@@H]2C/C=C\CCCC(=O)O[C@@H](CCCCC)C/C=C2/C(=O)C(Cl)=C[C@@H]2C/C=C\CCCC(=O)O1

>  <answer_label>
1 (yes)

$$$$
>  <compound>
Cn1cc(-c2ccc(CNc3cc(-c4cnc5cc(OCCCN6CCCC6)ccn45)ncn3)cc2)cn1

>  <answer_label>
0 (no)

$$$$
>  <compound>
CC[CH2][Pb]([CH2]CC)([CH2]CC)[NH]S(=O)(=O)c1ccc(C)cc1

>  <answer_label>
1 (yes)

$$$$
>  <compound>
CC(=O)OC1C2(CC3N4C(=O)C5(CO)SSC4(CC31O)C(=O)N5C)OC(C)C(C)(C)C2=O (configuration not stated)

>  <answer_label>
1 (yes)

$$$$
>  <compound>
NCc1ccc(-n2c(-c3nonc3N)nc3cnccc32)cc1

>  <answer_label>
0 (no)

$$$$

query: Assay result, entry Clc1ccc2nc(Oc3ccccc3)cnc2c1 — outcome?
result: 0 (no)

query: Assay result, entry Cc1cc(N2CCCC2)nc(N(CCCNc2ccnc3cc(Cl)ccc23)Cc2ccc3c(c2)OCO3)n1 — outcome?
result: 0 (no)

query: Assay result, entry Fc1ccc(Nc2nccc(-c3c(-c4ccc(C(F)(F)F)cc4)nn4ncccc34)n2)cc1F — outcome?
result: 0 (no)

query: Assay result, entry Cc1cn2c(/C=N/N/C(N)=N\N)c(-c3ccc(Cl)c([N+](=O)[O-])c3)nc2s1 — outcome?
result: 0 (no)

query: Assay result, entry CC(C)OC(=O)c1ccc2[nH]c(O)c(C(=Nc3ccc(N(C)C(=O)CN4CCN(C)CC4)cc3)c3ccccc3)c2c1 — outcome?
result: 1 (yes)

query: Assay result, entry CC1=CC(=O)C(C(C)=Nc2ccccc2Cl)C(=O)O1 (configuration not stated) — outcome?
result: 0 (no)

query: Assay result, entry COc1cnc2c(c1)C(=O)c1c-2n(CCCN2CCCC2)c(=O)c2cc(Cl)ccc12 — outcome?
result: 0 (no)
